Overview of recorded reverse-splicing fitness for various variants
B1: Azoarcus group I ribozyme (parent)
chain: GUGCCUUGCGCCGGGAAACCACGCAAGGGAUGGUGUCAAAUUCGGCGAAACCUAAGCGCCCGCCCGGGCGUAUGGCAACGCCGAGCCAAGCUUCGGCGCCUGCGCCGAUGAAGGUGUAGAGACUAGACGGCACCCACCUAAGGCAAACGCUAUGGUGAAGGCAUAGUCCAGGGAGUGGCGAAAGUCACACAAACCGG

- Variants of: B1
- assay overview: reverse-splicing fitness (ratio to wild type); higher = more active; in vitro selection; Mg2+ level not given

Solved cases (4 shown):
The value of reverse-splicing fitness measured for the variant C82G A120G A145U C150U C169A turned out to be 0.0199

The value of reverse-splicing fitness measured for the variant C82U A111U A145U C169A U176C turned out to be 0.00904

The value of reverse-splicing fitness measured for the variant C82A A111G A120C A145U C150U C169G turned out to be 0.00921

The value of reverse-splicing fitness measured for the variant C82G A120G A145C C150U U176C turned out to be 0.00922

More entries:
The value of reverse-splicing fitness measured for the variant A120C A145G C150U C169A U176C turned out to be 0.0196
